For each entry below, report its melting point value.

Q. Returns the measured melting point for the input molecule. Input: CC(c1oc2ccccc2c(=O)c1-c1cccc(F)c1)n1nc(-c2cccc3[nH]ncc23)c2c(N)ncnc21 (stereo not given)
A. 231 to 233 °C

Q. Returns the measured melting point for the input molecule. Input: CCOC(=O)C1=C(C)NC(N)=C(C(=O)OCC)C1c1cccc2ccccc12 (stereo not given)
A. 174 °C

Q. Returns the measured melting point for the input molecule. Input: COc1ccc(C(=O)C2(Br)CCCCC2)c(Cl)c1Cl
A. 94 to 95 °C

Q. Returns the measured melting point for the input molecule. Input: Nc1ccccc1OC1CCCCC1
A. 55 to 56 °C

Q. Returns the measured melting point for the input molecule. Input: COc1ccc(C2(CCN3CCC(C(=O)c4nc5ccccc5s4)CC3)CCN(C(=O)c3ccccc3)C2)cc1OC (stereo not given)
A. 74 to 76 °C

Q. Returns the measured melting point for the input molecule. Input: Cc1ccc(CNC(=O)c2nc(N3CCOCC3)n(C)c(=O)c2O)cc1C
A. 164 to 166 °C

Q. Returns the measured melting point for the input molecule. Input: CCCCCCCCCCCCCCCCCCOc1ccc(C(=O)O)cc1OCCCCCCCCCCCCCCCCCC
A. 94 to 117 °C

Q. Returns the measured melting point for the input molecule. Input: N=C(N)c1ccc(-n2ncn(-c3ccc(CCC(=O)O)cc3)c2=O)cc1
A. 310 to 313 °C

Q. Returns the measured melting point for the input molecule. Input: COc1cc2oc(=O)c(CCOS(C)(=O)=O)c(C)c2cc1OC
A. 188 to 191 °C

Q. Returns the measured melting point for the input molecule. Input: COc1ccc(C(C)N(C)CCCOc2ccc(S(=O)(=O)c3c(C(C)C)cn4ccccc34)cc2)cc1 (stereo not given)
A. 140 to 144 °C

Q. Returns the measured melting point for the input molecule. Input: O=C(c1ccc(F)cc1)N1CCCC(F)(c2nc(-c3ccc[nH]3)no2)C1 (stereo not given)
A. 115 to 118 °C

Q. Returns the measured melting point for the input molecule. Input: CC(=O)NCCCc1ccc(CCl)cc1
A. 89 to 90 °C

Q. Returns the measured melting point for the input molecule. Input: O=c1cc(-c2ccncn2)nc2n1CCCN2
A. 268 to 272 °C

Q. Returns the measured melting point for the input molecule. Input: CCOc1ccc(-c2ccc3c(c2)C=C(C(=O)OC)CCN3)cc1
A. 157 to 158 °C

Q. Returns the measured melting point for the input molecule. Input: O=C1CC(CP(=O)(c2ccccc2)c2ccccc2)O1 (stereo not given)
A. 154 to 155 °C

###

ENDPOINT NAME: melting point

Q. Returns the measured melting point for the input molecule. Input: CC1(C)CCC(C)(C)c2cc(-c3csc(C=CC(=O)O)c3)ccc21
A. 182 to 185 °C

Q. Returns the measured melting point for the input molecule. Input: COc1cccc(-c2nn(Cc3oc4ccccc4c(=O)c3-c3cccc(F)c3)c3ncnc(N)c23)c1
A. 175 to 178 °C

Q. Returns the measured melting point for the input molecule. Input: Cc1ccc(C2=NN(c3ccccc3)C(=O)C2)cc1
A. 112 to 113 °C

###

For each entry below, report its melting point value.

Q. Returns the measured melting point for the input compound. Input: Cc1ccc(Cl)c(NS(=O)(=O)c2nc3nc(Cl)cc(Cl)n3n2)c1Cl
A. 269 to 271 °C

Q. Returns the measured melting point for the input compound. Input: O=C(COc1ccc(Cl)cc1)N[C@@H](Cc1ccccc1)C(=O)CSCc1ccco1
A. 95 to 98 °C

Q. Returns the measured melting point for the input compound. Input: Cn1cc(C2=C(c3ccccc3OCC3COC(C)(C)O3)C(=O)NC2=O)c2ccccc21 (racemic)
A. 221 °C

###

For each entry below, report its melting point value.

Q. Returns the measured melting point for the input compound. Input: CCn1cc2c(n1)c(N)nc1ccccc12
A. 240 to 241 °C

Q. Returns the measured melting point for the input compound. Input: CN1C(=O)C(Cc2ccccc2)N(C)C(=O)C1=Cc1c(C#N)ccc(F)c1F (configuration not stated)
A. 175 °C

Q. Returns the measured melting point for the input compound. Input: Nc1c(F)c(N2CCC(=NO)C2)c(F)c2c1c(=O)c(C(=O)O)cn2C1CC1
A. 273 to 276 °C

Q. Returns the measured melting point for the input compound. Input: O=C1C(=O)N(c2ccccc2)C(=O)N1c1ccccc1
A. 203 °C

Q. Returns the measured melting point for the input compound. Input: CCNc1cccnc1N1CCN(C(=O)c2ccc(C(=O)O)cn2)CC1
A. 155 to 157 °C

Q. Returns the measured melting point for the input compound. Input: COC(=O)OCC(COC(=O)OC)OCn1cnc2c(=O)[nH]c(N)nc21
A. 204 to 206 °C

Q. Returns the measured melting point for the input compound. Input: CCn1cnc2c(Nc3cccc(Cl)c3)nc(N3CCC[C@@H]3CN)nc21
A. 126 to 129 °C

Q. Returns the measured melting point for the input compound. Input: CCCN1CCc2c(NC(C)=O)ccc(Br)c2C1
A. 144 to 145 °C

Q. Returns the measured melting point for the input compound. Input: O=[N+]([O-])c1ccc(Oc2cccc3cccnc23)c(Cl)c1
A. 113 to 115 °C

Q. Returns the measured melting point for the input compound. Input: CCOC(=O)/C=C/c1cn(Cc2ccc(Oc3ccccc3)cc2)nc1OCc1nc(-c2ccccc2)oc1C
A. 93 to 94 °C

Q. Returns the measured melting point for the input compound. Input: CCC(C)(C)c1cc(-c2cccc(CC3SC(N4CCOCC4)=NC3=O)c2)ccc1O (configuration not stated)
A. 74 to 77 °C

Q. Returns the measured melting point for the input compound. Input: CN(C)c1ncnc2c1c(-c1ccc([N+](=O)[O-])o1)nn2C
A. 161 °C

Q. Returns the measured melting point for the input compound. Input: CCOC(=O)C1CCCc2[nH]c3c(C)ccc(OC)c3c21 (configuration not stated)
A. 119 to 122 °C

Q. Returns the measured melting point for the input compound. Input: Cc1cccc2c(=O)n3c(nc12)C(=O)c1ccccc1-3
A. 247 to 248 °C

Q. Returns the measured melting point for the input compound. Input: CCCc1c(OCCCCCC(=O)c2ccc3cc(OC)c(OC)cc3c2)ccc(C(=O)O)c1O
A. 144 to 146 °C

Q. Returns the measured melting point for the input compound. Input: CNC(=N)Nc1nnc(-c2ccccc2C(F)(F)F)s1
A. 160 to 162 °C

Q. Returns the measured melting point for the input compound. Input: CCCCOc1c(CN2C(=O)c3ccccc3C2=O)n(CC(C)(C)C)c(=O)c2ccc(F)cc12
A. 162 to 164 °C

Q. Returns the measured melting point for the input compound. Input: COc1ccc(C2c3c(C)c(N4CCN(c5ccc(OC)cc5)CC4)c(C)c(C)c3OC2(C)C)cc1 (configuration not stated)
A. 205 to 207 °C

Q. Returns the measured melting point for the input compound. Input: CCCCc1nn2c(c1Cc1ccc(-c3ccccc3)c(C(=O)O)c1)CCCC2
A. 162 °C

Q. Returns the measured melting point for the input compound. Input: CCC(=O)Nc1ccnn1-c1ncc(Cl)cc1Cl
A. 116 to 124 °C

Q. Returns the measured melting point for the input compound. Input: Cc1cc(-c2cc(C(F)(F)F)nn2-c2ccc(S(C)(=O)=O)cc2)ccc1-c1cscn1
A. 140 to 142 °C

Q. Returns the measured melting point for the input compound. Input: COC(=O)C1=C(CC(=O)N2CCN(C)CC2)NC(CS(=O)c2ccccc2C)=C(C(=O)OC)C1c1c(Cl)cccc1Cl (configuration not stated)
A. 183 °C

Q. Returns the measured melting point for the input compound. Input: O=C(O)c1ccc(I)cc1F
A. 158 to 159 °C

Q. Returns the measured melting point for the input compound. Input: CCCCc1ccc(CNc2cc(C(=O)Nc3ccccc3)ccc2OC)cc1
A. 171 to 173 °C

Q. Returns the measured melting point for the input compound. Input: Cc1c(Cc2cccc3ccccc23)c(=O)oc2cc(O)cc(O)c12
A. 275 to 280 °C

Q. Returns the measured melting point for the input compound. Input: C=CCn1c2ccccc2c2ccccc21
A. 52 to 54 °C

Q. Returns the measured melting point for the input compound. Input: Cc1nc2c(c3c1[nH]c1ccccc13)C(=O)CC(C)(C)C2
A. 176 to 177 °C

Q. Returns the measured melting point for the input compound. Input: CON=C(C(=O)N(C)C)C(C)=NOCc1ccc(C)cc1
A. 68 to 69 °C

Q. Returns the measured melting point for the input compound. Input: COc1ccc(Cc2cnc(-c3ccccc3)c(-c3ccccc3)n2)cc1
A. 102 to 103 °C

Q. Returns the measured melting point for the input compound. Input: C#Cc1cccc(Oc2nc(Cl)nc(Oc3cccc(C#C)c3)n2)c1
A. 121 to 125 °C

Q. Returns the measured melting point for the input compound. Input: CCOC(=O)c1[nH]c(Cl)nc1-c1ccccc1
A. 128 to 129 °C

Q. Returns the measured melting point for the input compound. Input: CC1(C)CC(=O)c2c(SCCO)sc(-c3ccccn3)c2C1
A. 175 to 177 °C
